Recorded values, source PubChem BioAssay AID504338.

# testProtocol: yeast TOR reporter LAP4-GFP retest – cell-based, third cherry pick, flow cytometry, confirmation (AID 504338);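 also: ratio to plate DMSO wells so 100% equals DMSO level rather than 0%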
# statedConditions: S. cerevisiae LAP4-GFP strain, 3 h, at 10 µM
Active and inactive are the calls of the source.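 The calls were made as follows: active = GFP response vs DMSO above 150% with enough events counted; inconclusive = fewer than 70 events counted for a yeast strain; inactive = the rest.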
Please state which outcome applies, choosing from true (1) = active, false (0) = inactive

smilesNotation: Nc1cc(C(=O)O)c(N)c2c1C(=O)c1ccccc1C2=O
assignedClass: false (0)

For Nc1c(O)ccc2c1C(=O)c1ccccc1C2=O , which call appears in the assay record?
false (0)

For Oc1ccc(Cl)c2cccnc12 , which call appears in the assay record?
false (0)

For Oc1c(I)cc(Cl)c2cccnc12 , which call appears in the assay record?
true (1)

For CNc1nc(N)c([N+](=O)[O-])c(Nc2ccccc2OC)n1 , which call appears in the assay record?
false (0)

For CCN(CC)C(=O)Oc1ccnc2cc(Cl)ccc12 , which call appears in the assay record?
false (0)

For NC(=O)COc1cccc2cccnc12 , which call appears in the assay record?
false (0)

For C/C(=N\NC(=O)c1ccccc1)c1ccccc1F , which call appears in the assay record?
false (0)

For Nc1ccc(O)c2c1C(=O)c1ccccc1C2=O , which call appears in the assay record?
false (0)

For O=C(O)c1ccccc1-c1ccccc1C(=O)Nc1ccc(-c2nc3cc(Cl)ccc3o2)cc1 , which call appears in the assay record?
false (0)

For CC1=CN2C(=N)/C(=C/c3ccc([N+](=O)[O-])o3)C(=O)N=C2S1 , which call appears in the assay record?
true (1)

For CC(=O)Nn1cnc2c(c1=O)C1(CCCC1)Cc1ccccc1-2 , which call appears in the assay record?
false (0)

For COc1cccc2c(=O)c(C(=O)O)c[nH]c12 , which call appears in the assay record?
false (0)

###

# testProtocol: yeast TOR reporter LAP4-GFP retest – cell-based, third cherry pick, flow cytometry, confirmation (AID 504338);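 also: ratio to plate DMSO wells so 100% equals DMSO level rather than 0%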
# statedConditions: S. cerevisiae LAP4-GFP strain, 3 h, at 10 µM, hits give high values
recordedEndpoint: GFP response vs DMSO (%)
Give bare numbers, in %.

molecule: O=C(Nc1cccc(Cl)c1)ON=C1c2ccccc2-c2ccccc21
GFP response vs DMSO (%): 107
--
molecule: CCCC(=O)Nn1cnc2c(c1=O)C1(CCCC1)Cc1ccccc1-2
GFP response vs DMSO (%): 103
--
molecule: CS(=O)(=O)Oc1ccc(Br)c2cccnc12
GFP response vs DMSO (%): 104
--
molecule: CC1=CN2C(=N)/C(=C/c3ccco3)C(=O)N=C2S1
GFP response vs DMSO (%): 101
--
molecule: COc1cccc2c(O)cc(=O)n(C)c12
GFP response vs DMSO (%): 104
--
molecule: Cn1cccc1C(=O)Nc1nc(-c2ccccn2)cs1
GFP response vs DMSO (%): 114
--
molecule: COCC(C)NC(=O)CCS(=O)(=O)c1nc(-c2ccc(OC)cc2)cc(C(F)(F)F)n1 (configuration not stated)
GFP response vs DMSO (%): 104
--
molecule: C=CCNc1nc(N)c([N+](=O)[O-])c(Nc2cccc(Cl)c2)n1
GFP response vs DMSO (%): 104
--
molecule: O=C(O)CCCCCNc1ncnc2ccc(Br)cc12
GFP response vs DMSO (%): 104
--
molecule: Cc1cccc(Nc2cc(=O)[nH]c(=O)[nH]2)c1C
GFP response vs DMSO (%): 101

Could I get GFP response vs DMSO for every one of these entries?
1. Oc1c(Cl)cc(Cl)c2cccnc12
2. O=C(Nc1cccc2ccccc12)ON=C1CCCCC1

1. 188
2. 112
